Experiment: chemical genetic growth profiling, strain panel (AID 1159580);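 further: tested at 20 µM; growth read once vehicle control cultures reached saturation at 30 °C; 1 = growth at the plate median or of vehicle wells; lower values mean less growth of the strain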
Conditions: S. cerevisiae deletion strains, growth OD, locus YNL271C, strain bni1, hits give low values
In all, about 5,500 compounds went through this assay and about 2,000 (36%) were called active. Not shown: some 18% with an inconclusive outcome. The list shows a part of the results.
normalized growth values for the molecules below.
Answer with a number only.

Recorded normalized growth, per entry:
INSERT INTO assay_data (structure_string, quantity_kind, value_observed) VALUES
  ('N[C@@H](Cc1cc(I)c(Oc2cc(I)c(O)c(I)c2)c(I)c1)C(=O)O', 'normalized growth', 1),
  ('Nc1ccncc1', 'normalized growth', 0.942),
  ('CN(C)N=Nc1nc[nH]c1C(N)=O', 'normalized growth', 0.995),
  ('CCCC(C(=O)OCCN(CC)CC)(c1ccccc1)c1ccccc1', 'normalized growth', 0.994),
  ('N[C@H](Cc1cc(I)c(Oc2ccc(O)c(I)c2)c(I)c1)C(=O)O', 'normalized growth', 0.989),
  ('COc1ccc(C(=O)CC(=O)c2ccc(C(C)(C)C)cc2)cc1', 'normalized growth', 1),
  ('C=C[C@H]1CN2CC[C@H]1C[C@@H]2[C@H](O)c1ccnc2ccccc12', 'normalized growth', 0.983),
  ('N[C@H](Cc1ccccc1)C(=O)O', 'normalized growth', 1.01);

Query: Quick one: normalized growth of S=P(N1CC1)(N1CC1)N1CC1 ?
Response: 1.01

----------
Assay: chemical genetic growth profiling, strain panel (AID 1159580);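 further: tested at 20 µM; growth read once vehicle control cultures reached saturation at 30 °C; 1 = growth at the plate median or of vehicle wells; lower values mean less growth of the strain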
Conditions: S. cerevisiae deletion strains, growth OD, locus YPL051W, strain arl3, hits give low values
Out of some 5,500 compounds screened, about 2,000 (36%) were called active. Roughly 18% stayed inconclusive and do not appear here. The list shows a part of the results.
Lab note: anything with normalized growth below 1 is marked met; values at 1 or higher are marked not met.

Query: Just wondering, is normalized growth of N[C@@H]1[C@@H](O)[C@H](O)[C@@H](CO)O[C@H]1O below 1?
Response: not met

Query: Now the molecule Nc1cc(-c2ccncc2)c[nH]c1=O
Response: met

Query: Now the molecule CCN(CC)C(C)CN1c2ccccc2Sc2ccccc21 (stereo not given)
Response: met

----------
Assay: chemical genetic growth profiling, strain panel (AID 1159580);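 further: tested at 20 µM; growth read once vehicle control cultures reached saturation at 30 °C; 1 = growth at the plate median or of vehicle wells; lower values mean less growth of the strain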
Details: S. cerevisiae deletion strains, growth OD, locus YLL026W
Out of some 5,500 compounds screened, about 2,000 (36%) were called active. Another 18% or so got no clear call; they are omitted. No stated cut-off is given here; in the data, active means normalized growth mostly below about 0.91 (no sharp cut-off); inconclusive means no clear call, values can overlap the other calls; inactive means mostly above about 0.92. This is one part of the list.
Could you please pick one outcome from this set? active, inactive

// known answers, use as guide
INSERT INTO measurements (compound, category) VALUES
  ('S=P(N1CC1)(N1CC1)N1CC1', 'inactive'),
  ('Nc1ccncc1', 'inactive'),
  ('COc1c2ccoc2nc2c(OC)c(OCC(O)C(C)(C)O)ccc12 (stereo not given)', 'inactive'),
  ('O=c1cc(-c2ccccc2)oc2cc(O)c(O)c(O)c12', 'active'),
  ('COc1cc(S(C)=O)ccc1-c1nc2ncccc2[nH]1 (stereo not given)', 'inactive'),
  ('CCCCCC1C(=O)CCC1CC(=O)O (stereo not given)', 'inactive');

Query: Would you mind telling me which call this test gave N[C@H](Cc1ccccc1)C(=O)O ?
Response: inactive

Query: Now the compound CN(C)CCC(c1ccc(Br)cc1)c1ccccn1 (stereo not given)
Response: inactive
